The reported measurements were obtained from the supplement of paper PMC10307832.

Tested on: NCI-H441
Assay: relative viability (nuclei count vs DMSO), 5 days (fraction); higher = more cells survive
Protocol conditions: first compound 8 µM
Experimental readout: relative viability
Response field accepts a number only; no unit should be typed.

// known answers, use as guide
O=c1cc(-c2cccc3c2Sc2ccccc2S3)oc(N2CCOCC2)c1 + CC(C)C[C@H](NC(=O)[C@H](Cc1ccccc1)NC(=O)c1cnccn1)B(O)O [Bortezomib] (partner 0.002 µM); 0.594
O=c1cc(-c2cccc3c2Sc2ccccc2S3)oc(N2CCOCC2)c1 + CS(=O)(=O)N1CCN(Cc2cc3nc(-c4cccc5[nH]ncc45)nc(N4CCOCC4)c3s2)CC1 [Pictilisib] (partner 1 µM); 0.509

--- query ---
Give NCI-H441 relative viability for O=c1cc(-c2cccc3c2Sc2ccccc2S3)oc(N2CCOCC2)c1 + Nc1ncn([C@H]2C[C@H](O)[C@@H](CO)O2)c(=O)n1 [Decitabine] (partner 2 µM)
0.265

* * *

Tested on: SW 1573
Assay: relative viability (nuclei count vs DMSO), 5 days (fraction); higher = more cells survive
Protocol conditions: first compound 2.53 µM
Overview of recorded relative viability for various compounds

// known answers, use as guide
O=c1cc(-c2cccc3c2Sc2ccccc2S3)oc(N2CCOCC2)c1 + Nc1nc2[nH]cc(CCc3ccc(C(=O)N[C@@H](CCC(=O)O)C(=O)O)cc3)c2c(=O)[nH]1 [Pemetrexed] (partner 0.2 µM); 0.838
O=c1cc(-c2cccc3c2Sc2ccccc2S3)oc(N2CCOCC2)c1 + C[C@]1(O)C[C@@H](c2nc(-c3ccc4ccc(-c5ccccc5)nc4c3)c3c(N)nccn32)C1 [Linsitinib] (partner 1 µM); 0.809

--- query ---
Any idea what relative viability was measured for O=c1cc(-c2cccc3c2Sc2ccccc2S3)oc(N2CCOCC2)c1 + Nc1ncn([C@H]2C[C@H](O)[C@@H](CO)O2)c(=O)n1 [Decitabine] (partner 2 µM) ?
0.448

* * *

Overview of recorded relative viability for various compounds
Tested on: NCI-H1793
Assay: relative viability (nuclei count vs DMSO), 5 days (fraction); higher = more cells survive
Protocol conditions: first compound 1 µM
Response field accepts a number only; no unit should be typed.

CCN(CC)CCCCNc1ncc2cc(-c3cc(OC)cc(OC)c3)c(NC(=O)NC(C)(C)C)nc2n1 + CC1(C)CCC(c2ccc(Cl)cc2)=C(CN2CCN(c3ccc(C(=O)NS(=O)(=O)c4ccc(N[C@H](CCN5CCOCC5)CSc5ccccc5)c(S(=O)(=O)C(F)(F)F)c4)cc3)CC2)C1 [Navitoclax] (partner 0.5 µM); 0.326

--- query ---
Give NCI-H1793 relative viability for O=c1cc(N2CCOCC2)oc2c(-c3cccc4c3sc3ccccc34)cccc12 + Cc1nc(Nc2ncc(C(=O)Nc3c(C)cccc3Cl)s2)cc(N2CCN(CCO)CC2)n1 [Dasatinib] (partner 0.075 µM)
0.405

* * *

Tested on: BEN
Assay: relative viability (nuclei count vs DMSO), 5 days (fraction); higher = more cells survive
Protocol conditions: first compound 0.3162 µM
Overview of recorded relative viability for various molecules

// known answers, use as guide
O=c1cc(N2CCOCC2)oc2c(-c3cccc4c3sc3ccccc34)cccc12 + O=C(CCCCCCC(=O)Nc1ccccc1)NO [Vorinostat] (partner 1 µM); 0.583
O=c1cc(N2CCOCC2)oc2c(-c3cccc4c3sc3ccccc34)cccc12 + Cc1cc(Nc2cc(N3CCN(C)CC3)nc(Sc3ccc(NC(=O)C4CC4)cc3)n2)n[nH]1 [Tozasertib] (partner 0.1 µM); 0.463
O=c1cc(N2CCOCC2)oc2c(-c3cccc4c3sc3ccccc34)cccc12 + C[C@@H](Oc1cc(-c2cnn(C3CCNCC3)c2)cnc1N)c1c(Cl)ccc(F)c1Cl [Crizotinib] (partner 1 µM); 0.951
CCN(CC)CCCCNc1ncc2cc(-c3cc(OC)cc(OC)c3)c(NC(=O)NC(C)(C)C)nc2n1 + Cc1nc(Nc2ncc(C(=O)Nc3c(C)cccc3Cl)s2)cc(N2CCN(CCO)CC2)n1 [Dasatinib] (partner 0.075 µM); 0.353

--- query ---
Any idea what relative viability was measured for CCN(CC)CCCCNc1ncc2cc(-c3cc(OC)cc(OC)c3)c(NC(=O)NC(C)(C)C)nc2n1 + CS(=O)(=O)N1CCN(Cc2cc3nc(-c4cccc5[nH]ncc45)nc(N4CCOCC4)c3s2)CC1 [Pictilisib] (partner 1 µM) ?
0.59
